measurementTarget: UniProt P35372
Sequence (P35372 whole entry, species assumed): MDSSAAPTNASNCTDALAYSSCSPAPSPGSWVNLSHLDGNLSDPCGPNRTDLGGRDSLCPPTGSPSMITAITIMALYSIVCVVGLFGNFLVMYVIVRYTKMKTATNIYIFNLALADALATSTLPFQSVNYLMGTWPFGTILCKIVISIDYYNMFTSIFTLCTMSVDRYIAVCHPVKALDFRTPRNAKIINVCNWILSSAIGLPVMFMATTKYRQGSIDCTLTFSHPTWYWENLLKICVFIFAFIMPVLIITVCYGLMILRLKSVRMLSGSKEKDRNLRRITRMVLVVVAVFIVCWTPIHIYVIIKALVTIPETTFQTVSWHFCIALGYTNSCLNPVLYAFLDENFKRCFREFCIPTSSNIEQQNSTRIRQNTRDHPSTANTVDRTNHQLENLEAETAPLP
testName: μ-opioid receptor [35S]GTPγS functional assay, U-2 OS cells
Format: biochemical
Set-up: expressed in transfected cells; host or cells: U-2 OS
measurementContext: U-2 OS cells; read-out: GTPγS μ EC50
pEC50: −log10 of the molar value.
Given measured pEC50, output fulfilled if it is greater than or equal to 8 and not fulfilled if not.

compound: C=CC[C@@]12CCN(C)C(Cc3ccc(OC)cc31)[C@@H]2N(C)C(=O)Nc1ccc(C#N)cc1
classAssignment: not fulfilled
//
compound: C[C@]12CCN(CC3CC3)[C@H](Cc3ccc(O)cc31)[C@H]2NS(=O)(=O)c1cccc(C(F)(F)F)c1
classAssignment: fulfilled
//
compound: CN1CC[C@@]2(C)c3cc(O)ccc3C[C@@H]1[C@@H]2NCCc1ccc(S(N)(=O)=O)cc1
classAssignment: not fulfilled
//
compound: CN1CC[C@]2(C)c3cc(O)ccc3CC1[C@@H]2N1Cc2ccccc2NC1=O
classAssignment: not fulfilled
//
compound: CN(C(=O)c1ccsc1)[C@@H]1[C@H]2Cc3ccc(O)cc3[C@]1(C)CCN2CC1CC1
classAssignment: not fulfilled
//
compound: CN1CC[C@@]2(C)c3cc(O)ccc3C[C@@H]1[C@@H]2N(C)C(=O)c1ccccc1
classAssignment: not fulfilled
//
compound: CCN(C(=O)/C=C/c1ccoc1)C1C2Cc3ccc(OC)cc3[C@@]1(C)CCN2C (stereo in doubt)
classAssignment: not fulfilled
//
compound: CN1CC[C@]2(C)c3cc(O)ccc3CC1[C@@H]2CC(=O)Nc1ccc(C(=O)O)cc1
classAssignment: not fulfilled
//
compound: COc1ccc(CCN[C@H]2[C@H]3Cc4ccc(O)cc4[C@]2(C)CCN3C)cc1
classAssignment: not fulfilled
//
compound: CN1CC[C@@]2(C)c3cc(O)ccc3C[C@@H]1[C@@H]2N(C)CC1CCN(C(=O)OC(C)(C)C)CC1 [Compound 108]
classAssignment: fulfilled
//
compound: CN1CC[C@]2(C)c3cc(O)ccc3CC1C2N(C)C(=O)CCC(=O)O (stereo in doubt)
classAssignment: not fulfilled
//
compound: C[C@]12CCN(CC3CC3)[C@H](Cc3ccc(O)cc31)[C@H]2NC(=O)c1ccsc1
classAssignment: fulfilled
//
compound: CN([C@@H]1[C@H]2Cc3ccc(O)cc3[C@]1(C)CCN2CC1CC1)S(=O)(=O)c1cccc(C(F)(F)F)c1
classAssignment: not fulfilled
//
compound: COc1ccc2c(c1)[C@@]1(C)CCN(CC3CC3)[C@H](C2)[C@H]1N(C)C(=O)/C=C\c1ccoc1
classAssignment: not fulfilled
//
compound: CN1CC[C@@]2(C)c3cc(O)ccc3C[C@@H]1[C@H]2N(C)C(=O)Cc1ccccc1
classAssignment: not fulfilled
//
compound: CN1CC[C@@]2(C)c3cc(O)ccc3C[C@@H]1[C@H]2NCCc1ccc(Cl)c(Cl)c1
classAssignment: fulfilled
//
compound: CN1CC[C@@]2(C)c3cc(O)ccc3C[C@@H]1[C@H]2N(C)C(=O)c1ccsc1
classAssignment: not fulfilled
//
compound: CN1CC[C@@]2(C)c3cc(O)ccc3C[C@@H]1[C@H]2NCCc1ccc(C(C)(C)C)cc1
classAssignment: fulfilled
//
compound: CN1CC[C@@]2(C)c3cc(O)ccc3C[C@@H]1[C@H]2N(C)S(=O)(=O)c1cccc(C(F)(F)F)c1
classAssignment: not fulfilled
//
compound: CN1CC[C@]2(C)c3cc(O)ccc3C[C@H]1[C@H]2NCCc1ccc(S(N)(=O)=O)cc1
classAssignment: not fulfilled
//
compound: CN(C(=O)c1ccccc1)[C@@H]1[C@H]2Cc3ccc(O)cc3[C@]1(C)CCN2CC1CC1
classAssignment: not fulfilled
//
compound: CN1CC[C@]2(C)c3cc(O)ccc3CC1C2N(C)C(=O)Cc1ccc(S(C)(=O)=O)cc1 (stereo in doubt)
classAssignment: fulfilled
//
compound: CC(C)CCC(=O)N(C)[C@H]1[C@H]2Cc3ccc(O)cc3[C@]1(C)CCN2C
classAssignment: fulfilled
//
compound: CN1CC[C@@]2(C)c3cc(O)ccc3C[C@@H]1[C@@H]2N(C)S(=O)(=O)c1cccc(C(F)(F)F)c1
classAssignment: fulfilled
//
compound: CN(C(=O)Nc1ccc(C(C)(C)C)cc1)[C@@H]1[C@H]2Cc3ccc(O)cc3[C@]1(C)CCN2CC1CC1
classAssignment: fulfilled
